B1: TPR 5TU (parent)
chain: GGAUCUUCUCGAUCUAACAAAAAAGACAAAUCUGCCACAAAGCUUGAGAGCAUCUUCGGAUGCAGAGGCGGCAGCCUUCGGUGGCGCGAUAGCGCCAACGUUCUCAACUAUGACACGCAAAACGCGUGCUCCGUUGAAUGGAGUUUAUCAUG

Variants of: B1
Assay: polymerase ribozyme fitness, log enrichment relative to wild type (log ratio); higher = more active; in vitro selection for triplet polymerase activity
This sample holds only a part of the variants without activity.
readout: polymerase ribozyme fitness (log ratio)

G88C A147C G152U
≤ -4.2
U61A C149A
≤ -4.2
G42U G71U G88U G92C A97C A122G U134C
≤ -4.2
A12C A30U A37U A49U C57U U90G A91U A107U
≤ -4.2

Name the recorded polymerase ribozyme fitness (log ratio) of the variant listed here: C54A C57U G59U
-0.27

Name the recorded polymerase ribozyme fitness (log ratio) of the variant listed here: A21G C27A
-3.89

Name the recorded polymerase ribozyme fitness (log ratio) of the variant listed here: A28U A41C C96A G141C
-4.02

Name the recorded polymerase ribozyme fitness (log ratio) of the variant listed here: G58C C87A
≤ -4.2

Name the recorded polymerase ribozyme fitness (log ratio) of the variant listed here: A30C C43U A49C C85G C108G
≤ -4.2

Name the recorded polymerase ribozyme fitness (log ratio) of the variant listed here: A24U U151A
≤ -4.2

Name the recorded polymerase ribozyme fitness (log ratio) of the variant listed here: A20U U31C A49C C57U A60G G62C C96A
-4.15
